Measured viability at 48 h, 10 µM of individual entries
Experiment: Cytotoxicity against human SH-SY5Y cells assessed as cell viability at 10 uM after 48 hrs by MTT assay
Type: cell-based
Conditions: read-out: Activity
Lab book: enter the figure in %, no units written.

O=C1C(=Cc2ccc(N3CCN(C(=O)c4ccco4)CC3)cc2)C(=O)c2ccccc21 95.3

Now examine the next entry.
# lookup: viability at 48 h, 10 µM of O=C1C(=Cc2ccc(N3CCN(c4ncccn4)CC3)cc2)C(=O)c2ccccc21
95.3

----------
Biological target: UniProt:P05067
Sequence (P05067 whole entry): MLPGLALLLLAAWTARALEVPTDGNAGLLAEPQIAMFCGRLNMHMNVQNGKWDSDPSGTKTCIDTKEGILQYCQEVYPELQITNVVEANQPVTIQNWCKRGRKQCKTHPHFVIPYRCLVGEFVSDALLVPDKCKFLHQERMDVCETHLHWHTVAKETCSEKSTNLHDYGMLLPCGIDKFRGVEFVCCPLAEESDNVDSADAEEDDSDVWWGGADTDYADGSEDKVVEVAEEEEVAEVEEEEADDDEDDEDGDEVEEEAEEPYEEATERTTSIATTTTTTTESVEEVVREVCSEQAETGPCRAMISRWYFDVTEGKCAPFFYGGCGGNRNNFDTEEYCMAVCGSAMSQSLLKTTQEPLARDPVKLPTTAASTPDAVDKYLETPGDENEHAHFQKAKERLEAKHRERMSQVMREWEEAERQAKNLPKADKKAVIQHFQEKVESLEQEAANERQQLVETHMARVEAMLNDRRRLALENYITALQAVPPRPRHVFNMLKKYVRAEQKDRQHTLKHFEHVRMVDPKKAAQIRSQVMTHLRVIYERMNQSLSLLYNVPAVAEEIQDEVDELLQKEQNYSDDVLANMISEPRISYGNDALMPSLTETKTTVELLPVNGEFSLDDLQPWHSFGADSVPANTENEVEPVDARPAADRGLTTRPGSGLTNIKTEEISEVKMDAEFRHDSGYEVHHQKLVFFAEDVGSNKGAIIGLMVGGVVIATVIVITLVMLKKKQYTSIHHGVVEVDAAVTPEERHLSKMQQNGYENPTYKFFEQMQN
Assay: Inhibition of self-induced amyloid beta (1 to 42) (unknown origin) aggregation incubated for 48 hrs measured after 5 mins by thioflavin-T fluorescence assay
attribute.measured: IC50 (µM)
Lab book: enter the figure in µM, no units written.

Please review the following examples before continuing.
O=C1C(=Cc2ccc(N3CCN(c4ncccn4)CC3)cc2)C(=O)c2ccccc21 10.1
O=C1C(=Cc2ccc(N3CCN(C(c4ccccc4)c4ccccc4)CC3)cc2)C(=O)c2ccccc21 11.8

Now examine the next entry.
# get_value(readout= IC50, system= UniProt:P05067) for O=C1C(=Cc2ccc(N3CCN(C(=O)c4ccco4)CC3)cc2)C(=O)c2ccccc21
9.2
